- measured_on: P. falciparum falcipain-2 (Plasmodium falciparum)
- Construct: Recombinant falcipain-2 (30 nM) was incubated for 30 min at room temperature
- Sequence (Q8I6U4 244-484): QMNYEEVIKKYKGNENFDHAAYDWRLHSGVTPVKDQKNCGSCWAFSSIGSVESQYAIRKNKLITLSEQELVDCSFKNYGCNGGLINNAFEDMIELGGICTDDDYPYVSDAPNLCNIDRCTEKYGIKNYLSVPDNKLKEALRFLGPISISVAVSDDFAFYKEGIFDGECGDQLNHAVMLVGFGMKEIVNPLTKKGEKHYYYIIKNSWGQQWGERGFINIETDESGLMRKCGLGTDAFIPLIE
- measurement_notes: in vitro falcipain-2 inhibition assay (fluorogenic substrate Z-Leu-Arg-AMC)
- Format: biochemical
- setup_conditions: at 10 μM concentration level; recombinant falcipain-2 30 nM, pH 5.5, substrate Z-Leu-Arg-AMC 25 μM
parameter_measured: Inhibition rate (%)
Give bare numbers, in %.

Reference set, count: 5
CC1CCC2C(C)[C@@H](Oc3ccc(C=NNC(=O)Nc4ccccc4F)cc3)OC3OC4(C)CCC1C32OO4 (stereo partly drawn) [Compound 10g]    76.74
Cc1c(Cl)cccc1NC(=O)NN=Cc1ccc(C(=O)O[C@@H]2OC3OC4(C)CCC5C(C)CCC(C2C)C35OO4)cc1 (stereo partly drawn) [Compound 12f]    74.67
CC1CCC2C(C)[C@@H](Oc3ccc(C=NNC(=S)Nc4ccc(F)cc4)cc3)OC3OC4(C)CCC1C32OO4 (stereo partly drawn) [Compound 10b]    59.76
Cc1ccc(C)c(NC(=S)NN=Cc2ccc(O[C@H]3OC4OC5(C)CCC6C(C)CCC(C3C)C46OO5)cc2)c1 (stereo partly drawn) [Compound 10d]    75.28
CC(C)C[C@H](NC(=O)[C@H]1O[C@@H]1C(=O)O)C(=O)NCCCCN=C(N)N (relative stereo) [Compound E-64, reference compound]    100.0

Inhibition rate for Cc1cc(C)cc(NC(=O)NN=Cc2ccc(O[C@H]3O[C@@H]4O[C@@]5(C)CC[C@H]6[C@H](C)CC[C@@H]([C@H]3C)[C@@]46OO5)cc2)c1 [Compound 10k] is 87.88

----------
- measured_on: P. falciparum falcipain-2 (Plasmodium falciparum, UniProt Q8I6U4)
- Construct: Recombinant falcipain-2 (30 nM) was incubated for 30 min at room temperature
- measurement_notes: in vitro falcipain-2 inhibition assay (fluorogenic substrate Z-Leu-Arg-AMC)
- setup_conditions: recombinant falcipain-2 30 nM, 30 min preincubation, pH 5.5, substrate Z-Leu-Arg-AMC 25 μM; determined if inhibition rate larger than 20% at 10 μM
pIC50: −log10 of the molar value.
Note to self: values exactly at 6 are y. So pIC50 at or above 6 is y, below is n.

CC1CCC2C(C)[C@@H](Oc3ccc(C=NNC(=S)Nc4ccc(F)cc4)cc3)OC3OC4(C)CCC1C32OO4 (stereo partly drawn) [Compound 10b]    n

QUERY: For this compound, is measured pIC50 6 or higher? CCOc1ccc(NC(=S)NN=Cc2ccc(O[C@H]3OC4OC5(C)CCC6C(C)CCC(C3C)C46OO5)cc2)cc1 (stereo partly drawn) [Compound 10c]
RESULT: y

----------
Give measured Inhibition rate for each item. Keep answers brief.
- measured_on: P. falciparum falcipain-2 (Plasmodium falciparum, UniProt Q8I6U4)
- Construct: Recombinant falcipain-2 (30 nM) was incubated for 30 min at room temperature
- measurement_notes: in vitro falcipain-2 inhibition assay (fluorogenic substrate Z-Leu-Arg-AMC)
- Type: biochemical
- setup_conditions: at 10 μM concentration level; recombinant falcipain-2 30 nM, pH 5.5, substrate Z-Leu-Arg-AMC 25 μM
- Description: The in vitro P. falciparum falcipain-2 inhibition assay against was carried out according to a previously reported method by taking N-(L-3-trans-carboxyoxiran-2-carbonyl)-L-leucyl)-amido(4-guanido)butane (E-64) as a positive control and DMSO as a negative control. Falcipain-2 could hydrolyse the fluorogenic substrate benzyloxycarbonyl-Leu-Arg-7-amino-4-methylcoumarin (Z-Leu-Arg-AMC) to produce coumarin and its activity could be evaluated by monitoring the fluorescence of the coumarin. […]
Numbers only, in %.

These recorded examples may help you get a feel for the data.
CCOc1ccc(NC(=O)NN=Cc2ccc(C(=O)O[C@@H]3OC4OC5(C)CCC6C(C)CCC(C3C)C46OO5)cc2)cc1 (stereo partly shown) [Compound 12c]    75.89
CC1CCC2C(C)[C@H](OC(=O)c3ccc(C=NNC(=O)Nc4ccc(F)cc4)cc3)OC3OC4(C)CCC1C32OO4 (stereo partly shown) [Compound 12b]    69.25

Kindly give each listed record's Inhibition rate.
1. Cc1ccc(C)c(NC(=O)NN=Cc2ccc(C(=O)O[C@@H]3OC4OC5(C)CCC6C(C)CCC(C3C)C46OO5)cc2)c1 (stereo partly shown) [Compound 12d]
2. Cc1ccc(C)c(NC(=O)NN=Cc2ccc(O[C@H]3OC4OC5(C)CCC6C(C)CCC(C3C)C46OO5)cc2)c1 (stereo partly shown) [Compound 10j]
3. CC1CCC2C(C)[C@H](OC(=O)c3ccc(C=NNC(=O)Nc4ccccc4F)cc3)OC3OC4(C)CCC1C32OO4 (stereo partly shown) [Compound 12a]
4. Cc1c(Cl)cccc1NC(=S)NN=Cc1ccc(O[C@H]2OC3OC4(C)CCC5C(C)CCC(C2C)C35OO4)cc1 (stereo partly shown) [Compound 10f]

RESULT:
1. 76.61
2. 59.01
3. 79.32
4. 75.62

# compound Cc1c(Cl)cccc1NC(=O)NN=Cc1ccc(O[C@H]2OC3OC4(C)CCC5C(C)CCC(C2C)C35OO4)cc1 (stereo partly shown) [Compound 10l] ; its Inhibition rate = 81.82
